Please respond with reported IC50 for every item in the list.
Biological target: human placental aromatase (Homo sapiens)
Construct: utilizes the human placental microsomal fraction as enzyme source; from tissue; host or cells: human placenta, microsomal fraction
Sequence (P11511 whole entry): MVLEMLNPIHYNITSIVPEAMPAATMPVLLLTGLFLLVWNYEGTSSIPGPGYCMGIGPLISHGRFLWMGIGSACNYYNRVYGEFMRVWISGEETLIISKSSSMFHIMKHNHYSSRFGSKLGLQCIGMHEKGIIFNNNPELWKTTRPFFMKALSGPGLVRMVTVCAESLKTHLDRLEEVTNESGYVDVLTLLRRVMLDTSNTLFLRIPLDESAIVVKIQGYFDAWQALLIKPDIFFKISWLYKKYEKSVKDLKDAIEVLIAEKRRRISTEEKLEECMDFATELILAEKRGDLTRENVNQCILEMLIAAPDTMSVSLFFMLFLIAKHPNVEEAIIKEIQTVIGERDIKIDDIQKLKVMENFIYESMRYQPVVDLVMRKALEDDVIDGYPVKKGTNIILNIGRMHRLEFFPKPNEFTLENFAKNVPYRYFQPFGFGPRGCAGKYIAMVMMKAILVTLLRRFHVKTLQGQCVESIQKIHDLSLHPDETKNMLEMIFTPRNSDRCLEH
Assay: Inhibition of human placental aromatase (in vitro test of Thompson and Siiteri, 3H2O release from [1β-3H]androstenedione)
Type: biochemical
Conditions: human placental microsomal fraction as enzyme source; compounds incubated for 15 min at 37°C with 50 nM [1β-3H]androstenedione in the presence of NADPH
Please provide the amount together with its unit, number first.

get_value(item= CC1=C(C#N)C(c2cccc(-n3cncn3)c2)C(C#N)=C(C)N1 , readout=IC50) returns 25 nM

Lab book: IC50 of CCOC(=O)C1=C(C)NC(C)=C(C#N)C1c1cccc(-n2ccnc2)c1 (racemic) noted as 1.5 nM
